Reference source: patent US9718825B2

Field: pIC50. Provide a value for each of the compounds that follow.
Test system: SGK-1 dependent phosphorylation of GSK3beta in U2OS cells
Assay: SGK-1 dependent phosphorylation of GSK3beta in U2OS cells overexpressing recombinant SGK-1 and GSK3beta
Type: cell-based, human
Conditions: U2OS cells, 6 h incubation, ratio of phosphorylated GSK3beta to total GSK3beta; read-out: IC50 values for inhibition of SGK-1 dependent phosphorylation of GSK3beta in U2OS cells
Keep it numeric: pIC50 is minus log10 of the concentration in mol/L.

Per the record, "Nc1n[nH]c2nc(-c3ccc(NS(=O)(=O)c4cc(Cl)ccc4Cl)cc3)ncc12" has pIC50 of 6.01

Per the record, "Cc1n[nH]c2nc(-c3ccc(NS(=O)(=O)c4cc(Cl)ccc4F)cc3)ncc12" has pIC50 of 6.37

Per the record, "CC(C)COc1nc(-c2ccc(NS(=O)(=O)c3cccc(F)c3Cl)cc2)nc2[nH]nc(N)c12" has pIC50 of 6.48

Per the record, "COc1ccc(C#N)c(S(=O)(=O)Nc2ccc(-c3nc(C4CC4)c4c(N)n[nH]c4n3)cc2)c1" has pIC50 of 7.21

Per the record, Cc1ccc(C#N)c(S(=O)(=O)Nc2ccc(-c3nc(OC4CCC(O)CC4)c4c(C)n[nH]c4n3)cc2)c1 (stereo not drawn) has pIC50 of 6.13

Per the record, "Cc1nc(-c2ccc(NS(=O)(=O)c3cc4c(cc3Cl)OCCCO4)cc2)nc2[nH]nc(N)c12" has pIC50 of 5.52

Per the record, "Cc1nc(-c2ccc(NS(=O)(=O)c3cc(Cl)ccc3C#N)cc2)nc2[nH]nc(N3CCCC4(COC4)C3)c12" has pIC50 of 5.06

Per the record, "Cc1nc(-c2ccc(NS(=O)(=O)c3cc(F)cc(F)c3Cl)cc2)nc2[nH]nc(N)c12" has pIC50 of 6.55

Per the record, N#Cc1ccc(Cl)cc1S(=O)(=O)Nc1ccc(-c2nc(OC3CCC(O)CC3)c3cn[nH]c3n2)cc1 (stereo not drawn) has pIC50 of 5.68

Per the record, "NCCCOc1nc(-c2ccc(NS(=O)(=O)c3cc(F)ccc3F)cc2)nc2[nH]ncc12" has pIC50 of 6.19

Per the record, "Cc1ccc(C#N)c(S(=O)(=O)Nc2ccc(-c3nc(OCC(C)C)c4c(N)n[nH]c4n3)cc2)c1" has pIC50 of 5.89

Per the record, "Cc1ccc(C#N)c(S(=O)(=O)Nc2ccc(-c3ncc4c(C)n[nH]c4n3)cc2)c1" has pIC50 of 5.48

Per the record, COc1ccc(Cl)c(S(=O)(=O)Nc2ccc(-c3nc(OC4CCNCC4F)c4c(C)n[nH]c4n3)cc2)c1 (stereo not drawn) has pIC50 of 6.89

Per the record, O=S(=O)(Nc1ccc(-c2nc(OC3CCC(O)C3)c3cn[nH]c3n2)cc1)c1cc(Cl)ccc1Cl (stereo not drawn) has pIC50 of 6.32

Per the record, "Cc1ccc(F)c(S(=O)(=O)Nc2ccc(-c3nc(OCC(C)C)c4c(N)n[nH]c4n3)cc2)c1" has pIC50 of 6.68
